Reported Plant response rating (0 to 10 scale), Soybean values for a set of molecules
Tested on: soybean
RUN DESCRIPTION: Test B preemergence/postemergence greenhouse plant response rating 0 to 10
Type: in vivo, Glycine max
CONDITION CONTEXT: PREEMERGENCE, Rate 200 g/ha
// no unit string in output, number only

SMILES NOTATION | QUANTITATIVE RESULT
CCOCOc1cc(-c2nn3c(c2Cl)CCCC3)c(F)cc1Cl | 4
CON=C(C)c1cc(-c2nn3c(c2Cl)CCCC3)c(F)cc1Cl | 6
C=CCOc1cc(-c2nn3c(c2Cl)CCCC3)c(Cl)cc1Cl | 0

Task: Give recorded Plant response rating (0 to 10 scale), Soybean. COCCOc1cc(-c2nn3c(c2Cl)CCCC3)c(Cl)cc1Cl
Output: 0

Task: Quick one: give measured Plant response rating (0 to 10 scale), Soybean for FCCCOc1cc(-c2nn3c(c2Cl)CCCC3)c(F)cc1Cl
Output: 0

###

In this section, each of the compounds is paired with its reported Plant response rating, Bedstraw.
System: bedstraw
RUN DESCRIPTION: Test B preemergence/postemergence greenhouse plant response rating 0 to 10
Type: in vivo, Galium aparine
CONDITION CONTEXT: POSTEMERGENCE, Rate 10 g/ha; 0 to 10 scale
API note: the answer field is a bare number with no unit suffix.

A selection of reference data follows.
SMILES NOTATION | SYSTEM UNDER TEST | Plant response rating, Bedstraw
CCCN1C(=O)COc2cc(F)c(-c3nn4c(c3Cl)CCCC4)cc21 | bedstraw | 8
CC(C)N1C(=O)COc2cc(F)c(-c3nn4c(c3Cl)CCCC4)cc21 | bedstraw | 10
CCCCN1C(=O)COc2cc(F)c(-c3nn4c(c3Cl)CCCC4)cc21 | bedstraw | 9
C=CCN1C(=O)COc2cc(F)c(-c3nn4c(c3Cl)CCCC4)cc21 | bedstraw | 8
C=CCOC(=O)COc1cc(-c2nn3c(c2Cl)CCCC3)c(F)cc1Cl | bedstraw | 8

// below: Plant response rating, Bedstraw requested for another compound
Task: Input COCN1C(=O)COc2cc(F)c(-c3nn4c(c3Cl)CCCC4)cc21 , output reported Plant response rating, Bedstraw.
Output: 9

###

Tested on: sugar beet
RUN DESCRIPTION: Test B preemergence/postemergence greenhouse plant response rating 0 to 10
Type: in vivo, Beta vulgaris
CONDITION CONTEXT: PREEMERGENCE, Rate 50 g/ha; 0 to 10 scale
ENDPOINT NAME: Plant response rating, Sugar beet
// no unit string in output, number only

As a guide, the following entries are already answered.
SMILES NOTATION | Plant response rating, Sugar beet
COc1cc(-c2nn3c(c2Cl)CCCC3)c(F)cc1Cl | 7
CCCN1C(=O)COc2cc(F)c(-c3nn4c(c3Br)CCCC4)cc21 | 10

Task: Tell me its Plant response rating, Sugar beet given CCOC(=O)COc1cc(-c2nn3c(c2Cl)CCCC3)c(Cl)cc1Cl as the entry.
Output: 5

###

Test system: soybean
RUN DESCRIPTION: Test C preemergence/postemergence greenhouse plant response rating 0 to 100
Type: in vivo, Glycine max
CONDITION CONTEXT: POSTEMERGENCE; Rate 4 g/ha
Lab note: compare Plant response rating (0 to 100), Soybean against 40. Equal or greater, write yes (1). Smaller, write no (0).

// known answers, use as guide
COMPOUND | CLASSIFICATION
CCC(C)Oc1cc(-c2nn3c(c2Cl)CCCC3)c(F)cc1Cl (stereo not drawn) [Compound 48] | no (0)
C#CC(C)N1C(=O)COc2cc(F)c(-c3nn4c(c3Cl)CCCC4)cc21 (stereo not drawn) [Compound 50] | yes (1)
CCN1C(=O)COc2cc(F)c(-c3nn4c(c3Cl)CCCC4)cc21 [Compound 54] | yes (1)

Turning now to a further record.
Task: Is Plant response rating (0 to 100), Soybean at least 40? Consider COCN1C(=O)COc2cc(F)c(-c3nn4c(c3Cl)CCCC4)cc21 [Compound 55]
Output: yes (1)
